Target: MaxL homodimer (Homo sapiens, UniProt P61244 1-160)
Sequence (P61244 whole entry): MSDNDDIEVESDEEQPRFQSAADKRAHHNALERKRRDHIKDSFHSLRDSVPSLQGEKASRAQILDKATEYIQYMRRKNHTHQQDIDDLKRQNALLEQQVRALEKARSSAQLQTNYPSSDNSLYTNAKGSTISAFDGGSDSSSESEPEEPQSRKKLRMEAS
Assay: universal protein-binding microarray (PBM); PBS-based mixture, 10 nM His-tagged protein dimer, 2% milk, 200 ng/uL BSA, 50 ng/uL salmon testes DNA, 0.02% TX-100; detection with Alexa 488 anti-His antibody;; high values mean tight binding;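 note: fluorescence intensity normalized to that of the highest-ranked 8-mer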
Settings: protein: recombinant; tags: C-terminal His-tag (pET21a); chain copies: 2; dsDNA, one strand shown
The full ranking holds about 33,000 sequences; the median of “normalized occupancy” is about 0.075, and the highest 2% start at about 0.095. Only a selection was taken, and the highest values are over-represented in it overall.
Rule: binding signal below 0.08 normalized occupancy gives true (1), anything at or above gives false (0).

Look over these answered cases.
SEQUENCE_INPUT: ATGTGACA
CATEGORY: false (0)
--
SEQUENCE_INPUT: AGGCATGC
CATEGORY: false (0)
--
SEQUENCE_INPUT: CGCACGAG
CATEGORY: false (0)
--
SEQUENCE_INPUT: ATCGCAAT
CATEGORY: true (1)
--
SEQUENCE_INPUT: AGCACGTG
CATEGORY: false (0)

Is it true that binding signal reported for "CAATTTGG" is less than 0.08 normalized occupancy?
true (1)

Is binding signal strictly under 0.08 normalized occupancy for the entry "GCGTGTCA" ?
false (0)

Please indicate whether the reported binding signal of "GAATTACC" is strictly below 0.08 normalized occupancy.
true (1)

For this sequence, is binding signal lower than 0.08 normalized occupancy? "GCGTGTCC"
false (0)

Does "GCACGTAC" have binding signal strictly under 0.08 normalized occupancy?
false (0)

Criterion: binding signal strictly below 0.08 normalized occupancy. Is it met by "AGCACGAA" ?
false (0)

Please state whether binding signal is below 0.08 normalized occupancy for "CATCCCTC"
true (1)

Please check: binding signal for "CGAATAGA" , strictly under 0.08 normalized occupancy or not?
true (1)

Quick check: binding signal of "AGCACGAG" under 0.08 normalized occupancy?
false (0)

Identify whether the sequence "GATGGCAA" records binding signal below 0.08 normalized occupancy.
true (1)

Record "ACGTGTCC" : is its binding signal strictly below 0.08 normalized occupancy?
false (0)

Dear reviewer, please state whether "AAACACAG" has binding signal strictly beneath 0.08 normalized occupancy.
true (1)

Regarding "ATGTGTGG" , kindly confirm whether its binding signal is beneath 0.08 normalized occupancy.
false (0)

Would you kindly verify if binding signal of "GGGTTCTA" is strictly less than 0.08 normalized occupancy?
true (1)

Consider the sequence "AGGTGACC" . Is its binding signal strictly less than 0.08 normalized occupancy?
true (1)

Quick check: binding signal of "CATGGCAA" under 0.08 normalized occupancy?
false (0)

Please let me know if "ATGTCACG" shows binding signal below 0.08 normalized occupancy.
false (0)

Here's an entry: "ATGTGTGC" . Is its binding signal below 0.08 normalized occupancy?
false (0)

Field: below-cutoff. Rule: recorded binding signal strictly less than 0.08 normalized occupancy. Subject: "AGCACGAT"
false (0)

binding signal strictly < 0.08 normalized occupancy for this sequence? "ACGTGACG"
false (0)

====

Target: MaxL homodimer (Homo sapiens, UniProt P61244 1-160)
Assay: universal protein-binding microarray (PBM); PBS-based mixture, 10 nM His-tagged protein dimer, 2% milk, 200 ng/uL BSA, 50 ng/uL salmon testes DNA, 0.02% TX-100; detection with Alexa 488 anti-His antibody;; high values mean tight binding;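 note: fluorescence intensity normalized to that of the highest-ranked 8-mer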
Settings: protein: recombinant; tags: C-terminal His-tag (pET21a); chain copies: 2; dsDNA, one strand shown
Whole data set: some 33,000 sequences, median “normalized occupancy” near 0.075, cut for the highest 2% near 0.095. Many of the other results were omitted from the sample, so the highest values are more common in it than they were.
Some sequences, each annotated with its measured binding signal.
Field: numeric (normalized occupancy). Do not append units.

SEQUENCE_INPUT: ACCCAAAG
UNIT_ABBREV: normalized occupancy
binding signal: 0.072
--
SEQUENCE_INPUT: CATGCTGG
UNIT_ABBREV: normalized occupancy
binding signal: 0.125
--
SEQUENCE_INPUT: CCAATGGA
UNIT_ABBREV: normalized occupancy
binding signal: 0.0747

Determine from records and report binding signal for "ATGCATGG"
0.0969

Give the value of binding signal reported for the following: "CATGCAAG"
0.0837

Find the measured binding signal of "CAATGCGA" and report it.
0.0774

Return the recorded binding signal value; entry: "CACTGCTG"
0.0746

Read off the recorded binding signal for "ACAAAGGG"
0.0742

Answer with the recorded binding signal for the sequence listed here: "CCACCATC"
0.0768

Give the value of binding signal reported for the following: "CAAGGAAC"
0.079

Please report binding signal for the following sequence: "AAACATAC"
0.0888

Tell me measured binding signal for "ACTGCATG" please.
0.0859

For the sequence "ACTCTGAA" , give its reported binding signal.
0.0737

Determine its reported binding signal: "GGCATACA"
0.0776

Tell us which binding signal value is on record for "AAAGAGCA"
0.0761

Annotate the sequence "AAGGACAC" with its measured binding signal.
0.0757

Sourced from paper PMC4242493
